Test system: PC-3
ASSAY INFO: Chemotherapeutic agent cytotoxicity, CCK-8 assay
Format: cell-based
EXPERIMENTAL CONTEXT: Homo sapiens, 120 h, two to five days treatment
Experimental: A tissue culture method was optimized to test the effects of various chemotherapeutic agents on multiple cancer cell lines (see Table 1). […] Following treatment, the cytotoxic effect of the drug was quantified using the Cell Counting Kit-8 (CCK-8) (Dojindo Inc.) according to the manufacturer's instructions. […] After incubation, plates were read on a microplate reader at a wavelength of 490 nm. […]
pIC50: −log10 of the molar value.
METRIC: pIC50

1. NC(=O)NO [Hydroxyurea, hyroxycarbamide] = 1.46

Data provenance is patent US20060088899A1.
